# Target: T1, CaBdf1 BD1 (GST-tagged, wild-type) (Candida albicans (strain SC5314 / ATCC …, UniProt Q5A4W8))
# T1 chain: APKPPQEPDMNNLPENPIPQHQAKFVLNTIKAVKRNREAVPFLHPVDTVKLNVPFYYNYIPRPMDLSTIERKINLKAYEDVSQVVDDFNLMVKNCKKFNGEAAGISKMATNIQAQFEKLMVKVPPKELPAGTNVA
# Assay: histone peptide array (Active Motif MODified), 1 uM GST-tagged bromodomain, anti-GST detection, normalized mean intensity
Square brackets hold non-standard residues; d marks the D form. Ends that are not written are not given here. Arg(Me2a) = CN(C)C(=N)NCCC[C@H](N)C(=O)O; Lys(Me3) = C[N+](C)(C)CCCC[C@H](N)C(=O)O; Lys(Me) = CNCCCC[C@H](N)C(=O)O
Kind request: treat 0.007 as inclusive, so binding score at 0.007 or higher is fulfilled, anything lower is not fulfilled.

- Binder: "A[Arg(Me2a)]T[Lys(Me3)]QTA[Arg(Me2a)][Lys(Me)]STGGKAPRKQ"
  Answer label: "not fulfilled"
- Binder: "ARTKQTARKSTGGKAPRKQ (A R T K Q T A R Kme2 S pT G G K A P R K Q)"
  Answer label: "not fulfilled"
- Binder: "ARTKQTARKSTGGKAPRKQ (A Rme2s T Kme3 Q T A Rme2s Kme2 S T G G K A P R K Q)"
  Answer label: "not fulfilled"
- Binder: "ARTKQTARKSTGGKAPRKQ (A Rme2a T Kme2 Q T A Rme2a Kme3 S T G G K A P R K Q)"
  Answer label: "not fulfilled"
- Binder: "SGRGKGGKGLGKGGAKRHR (S G Rme2s G Kac G G Kac G L G K G G A K R H R)"
  Answer label: "fulfilled"
- Binder: "SGRGKGGKGLGKGGAKRHR (S G Rme2a G K G G Kac G L G K G G A K R H R)"
  Answer label: "fulfilled"
- Binder: "ARTKQTARKSTGGKAPRKQ (A R T K Q T A R Kac S T G G K A P R K Q)"
  Answer label: "fulfilled"
- Binder: "SGRGKGGKGLGKGGAKRHR (S G R G K G G Kac G L G Kac G G A K R H R)"
  Answer label: "fulfilled"
- Binder: "SGRGKGGKGLGKGGAKRHR (pS G Rme2s G Kac G G Kac G L G K G G A K R H R)"
  Answer label: "fulfilled"
- Binder: "ARTKQTARKSTGGKAPRKQ (A Rme2s T Kme2 Q T A Rme2s K S T G G K A P R K Q)"
  Answer label: "not fulfilled"
- Binder: "ARTKQTARKSTGGKAPRKQ (A R T K Q T A Rme2a Kac S pT G G K A P R K Q)"
  Answer label: "not fulfilled"
- Binder: "ARTKQTARKSTGGKAPRKQ (A Rme2a T Kme2 Q T A Rme2a K S T G G K A P R K Q)"
  Answer label: "not fulfilled"
- Binder: "AR(Me2s)TK(Me3)QTAR(Me2s)K(Me3)STGGKAPRKQ"
  Answer label: "not fulfilled"
- Binder: "ARTKQTARKSTGGKAPRKQ (A Rme2a T Kme2 Q T A R Kac S T G G K A P R K Q)"
  Answer label: "fulfilled"
